Recorded values, source patent US8404691B2.

Target: Mdm2/p53 binding (Homo sapiens, UniProt Q00987, L33E)
Construct: Mdm2 amino acids at positions 25 to 108
Sequence (Q00987 25-108 L33E): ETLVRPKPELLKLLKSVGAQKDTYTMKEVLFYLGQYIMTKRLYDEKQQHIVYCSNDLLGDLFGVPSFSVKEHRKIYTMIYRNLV
Assay: Mdm2/p53 binding assay (HTRF, His-p53 and GST-Mdm2)
Settings: His-p53 (aa 1-132) and GST-Mdm2 (aa 25-108, L33E), 6.25 nM each, 25° C. for 1 hour
readout_label: IC50 (nM)

The following compounds have reported results that may help.
1) CC[C@@H]1CNC2(CC2)CN1C(=O)[C@@H]1C[C@@H](F)CN1C(=O)C1=C(C(C)C)N2C(=N[C@@](C)(c3ccc(Cl)cc3)[C@H]2c2ccc(Cl)cc2)S1 [Example 22] | 2.6
2) CC(C)C1=C(C(=O)N2C[C@H](F)C[C@H]2C(=O)N2CC3(CC3)NC[C@H]2C)SC2=N[C@@](C)(c3ccc(Cl)cc3)[C@@H](c3ccc(Cl)cc3)N21 [Example 20] | 1.4

P: CC(C)C1=C(C(=O)N2C[C@H](F)C[C@H]2C(=O)N2CCNC3(CC3)C2)SC2=N[C@@](C)(c3ccc(Cl)cc3)[C@@H](c3ccc(Cl)cc3)N21 [Example 18]
Q: CC(C)C1=C(C(=O)N2C[C@H](F)C[C@H]2C(=O)N2CC3(CC3)NC[C@@H]2C(=O)O)SC2=N[C@@](C)(c3ccc(Cl)nc3)[C@@H](c3ccc(Cl)c(F)c3)N21.Cl.Cl [Example 13, dihydrochloride]
Larger number for IC50: P , or Q ? Your choice should be expressed through its label.
Q
(Q: 5.4 nM, P: 1.6 nM)
